B1: Max-interacting protein 1, residues 70 to 120; numbered along this chain, P50539 (parent)
chain: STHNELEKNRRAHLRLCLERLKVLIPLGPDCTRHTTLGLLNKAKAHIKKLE

# Variants of: B1
# assay.procedure: abundance fitness (aPCA) (normalised: wild type 0, dead -1); higher = more abundant; growth selection in yeast, the domain comes from the species named
# experimental.context: Homo sapiens
experimental.endpoint: abundance fitness

>>> print(df.to_string())
    mutation_key  test_value
 0          L50Q      -0.377
 1          I25R      -0.521
 2          N41C      -0.237
 3          I25H      -0.744
 4           S1H      -0.285
 5          G38Y      -0.546
 6          N41E      -0.139
 7          L27A      -0.006
 8           N4G      -0.223
 9          L21D       -1.23
10          R15N      -0.777
